# method: yeast display, Sf9 membrane polyspecificity reagent, FACS + sequencing; frameworks hold sequencing errors
measurement.kind: polyreactivity (PSR sort gate)

Below are worked cases with known answers.
{"columns": ["query.sequence", "reported"],
 "data": [
  ["QVQLVESGGGLVQAGGSLRLSCAASGPIFAYNAMGWYRQATGKERELVAAISYSGGSTYYPDSVKGRFTISRDNEKNSVYLQMNSLKPEDTAVYYCNAVYRYRTYRYDYWGQGTQVTVSS", "high polyreactivity"],
  ["QVQLVESGGGLVQAGGSLRLSCAASGSISQPYAMGGYRQAPGKERELVAAIRWSGGSTYYADSVKGRFTISRDNAKNTVYLEMNCLNPEDTAVYYCNKTTYYPSDYVYWGQGTQVTVSS", "low polyreactivity"],
  ["QVQLVESGGGLVQAGGSLRLSCAASGRIFWYYAMGWYRQAPGKERELVARITSGGRTYYADSVKGRFTISRDNAKNTVYLQMNSLKPEDTAVYYCARRGRKAYGYWGQGTQVTVSS", "high polyreactivity"],
  ["QVQLVESGGRLVPAGGSLRLTCAASGIISVYYVMGWYRPAPGKERELVAAINRSGGNTYYADSVKGRFTISRDNAKNTVYLQMNSLKPEDTAVYYCKASLYFYRYGHDDESDYWGQGTQVTVSS", "high polyreactivity"]
]}

[Q] Read off the recorded polyreactivity (PSR sort gate) for QVQLVESGGGLVQAGGSLRLSCAASGRIFGYYAMGGYRQAPGKERELVASISYSGASSYYADSVKGRFTISRDNAKNTVYLQMNSLKPEDTAVYYCNTDGDDFFHVIYDYWGQGTQVTVSS
[A] low polyreactivity

[Q] Read off the recorded polyreactivity (PSR sort gate) for QVQLVESGGGLVQAGGSLRLSCAASGITFWSNAMGWYRQAPGKERELVAAITSSGGSAYYADSVKGRFTISRDNAKNTVYLQMNSLKPEDTAVYYCAAPISRSAGWDSYDYWGQGTQVTVSS
[A] low polyreactivity
